test.protocol: binders of probe aHhip on microarray, primary screen, stem cell growth factor project, biochemical, small-molecule microarray, fluorescence 635/667 (AID 1087);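 also: score merges spot fluorescence at 667nm with spot signal to noise ratio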
conditions.used: higher = more signal
measured.endpoint: composite z-score
Write the number on its own, no unit after it.

For orientation, consider the following solved cases.
{"columns": ["smiles.notation", "composite z-score"],
 "data": [
  ["C=C[C@@H](C)[C@@H](OC(=O)Nc1ccc(SC)cc1)c1ccc(OCCO)cc1", 0.0373],
  ["COCCOC(=O)N1C(=O)[C@@]2(c3cc(C#CC4=CCCCC4)ccc31)[C@H](C(=O)N1CCCCCCC1)[C@H]1C(=O)O[C@H](c3ccccc3)[C@H](c3ccccc3)N1[C@@H]2c1ccc(OCCO)cc1", 0.739]
]}

Read the next record carefully.
Given the compound `CCOC(=O)C[C@H]1[C@H](OC(=O)c2ccccc2-c2ccccc2)[C@@H](NC(=O)c2ccccc2)c2cc(OCCCO)ccc2N1C(=O)c1ccccc1` , what is its reported composite z-score?
0.0274
